Here the recorded % INHIBITION, LRAT is given for each entry.
biological target: lecithin retinol acyl transferase (LRAT) (Bos taurus); assay: in vitro Microsomal Assay of retinol esterification, LRAT catalysed (retinyl laurate formation); conditions: Table 6A; 100µM
Could you give me the number in %? Just the number is fine.

Solved cases (4 shown):
[[record]]
molecule = "CCOC(=O)C1=C(C)C=CCC1(C)C [Ethyl saffranate]"
endpoint = "% INHIBITION, LRAT"
unitspec = "%"
value = 49

[[record]]
molecule = "CC=CC(=O)C1CCC(C)(C)C=C1C (centres unmarked) [Isodamascone]"
endpoint = "% INHIBITION, LRAT"
unitspec = "%"
value = 92

[[record]]
molecule = "CC(=O)/C(C)=C/C1C(C)=CCCC1(C)C (centres unmarked) [Gamma methyl ionone]"
endpoint = "% INHIBITION, LRAT"
unitspec = "%"
value = 38

[[record]]
molecule = "CCC(=O)/C=C/C1C(C)=CCCC1(C)C (stereo not drawn) [Alpha methyl ionone]"
endpoint = "% INHIBITION, LRAT"
unitspec = "%"
value = 77


Assay lecithin retinol acyl transferase (LRAT) (Bos taurus), sample CC1=CCCC(C)(C)C1/C=C/C(=O)CC(C)C (centres unmarked) [Isobutyl ionone] , % INHIBITION, LRAT read: 45

---

test system: acyl CoA retinol transferase (ARAT); test: in vitro Microsomal Assay of retinol esterification, ARAT catalysed (retinyl palmitate formation); details: Table 6A; 100µM
Label Satisfied when % INHIBITION, ARAT < 70%; otherwise Not satisfied.

Check out these entries, answers already filled in.
[[record]]
molecule = "CC(=O)c1cc2c(cc1C)C(C)(C)C(C)CC2(C)C (stereo not shown) [Tonalid]"
targetdesc = "acyl CoA retinol transferase (ARAT)"
label = "Satisfied"

[[record]]
molecule = "CCC(=O)/C=C/C1C(C)=CCCC1(C)C (stereo not drawn) [Alpha methyl ionone]"
targetdesc = "acyl CoA retinol transferase (ARAT)"
label = "Satisfied"

[[record]]
molecule = "CC(=O)c1cc2c(cc1C)C(C)(C)[C@H](C)[C@H]2C(C)C [Traseolide]"
targetdesc = "acyl CoA retinol transferase (ARAT)"
label = "Satisfied"

[[record]]
molecule = "CC=CC(=O)C1C(C)=CCCC1(C)C (stereo not drawn) [alpha damascone]"
targetdesc = "acyl CoA retinol transferase (ARAT)"
label = "Not satisfied"

[[record]]
molecule = "CC=CC(=O)C1CCC(C)(C)C=C1C (stereo not shown) [Isodamascone]"
targetdesc = "acyl CoA retinol transferase (ARAT)"
label = "Not satisfied"


Now, please, on to the next molecule.
Query: Given CC(C)(O)CCCC1=CCC(C=O)CC1 (stereo not shown) [Lyral] , is recorded % INHIBITION, ARAT strictly lower than 70%?
Response: Not satisfied

---

Measured inhibition at 100 µM, listed per entry for reference.
biological target: lecithin retinol acyl transferase (LRAT) (Bos taurus, UniProt Q9BGL2); assay: in vitro Microsomal Assay of retinol esterification, LRAT catalysed (retinyl laurate formation); conditions: read-out: % INHIBITION, LRAT
Sequence (Q9BGL2 whole entry): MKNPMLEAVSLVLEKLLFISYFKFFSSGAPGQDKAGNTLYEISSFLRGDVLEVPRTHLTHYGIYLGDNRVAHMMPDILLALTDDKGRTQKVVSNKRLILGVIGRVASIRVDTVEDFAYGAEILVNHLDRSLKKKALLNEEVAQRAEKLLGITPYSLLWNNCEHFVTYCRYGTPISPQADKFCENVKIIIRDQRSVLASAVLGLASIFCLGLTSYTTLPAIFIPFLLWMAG
Express the result in % but write the number alone.

[[record]]
compound = "CC12CCC(CC1=O)C2(C)C (stereo not drawn) [Camphor]"
value = 0

[[record]]
compound = "CC1=CCC(CCC(C)CO)C1(C)C (stereo not drawn) [Brahmanol]"
value = 75

[[record]]
compound = "COc1cc(C=O)ccc1O [Vanillin]"
value = 0

[[record]]
compound = "C/C=C/C(=O)C1C(C)C=CCC1(C)C (stereo not drawn) [Delta damascone]"
value = 95

[[record]]
compound = "CC(=O)c1cc2c(cc1C)C(C)(C)C(C)CC2(C)C (stereo not drawn) [Tonalid]"
value = 33

[[record]]
compound = "O=CC=Cc1ccccc1 [Cinnamaldehyde]"
value = 0

[[record]]
compound = "CC12CCC(CC1)C(C)(C)O2 [Eucalyptol]"
value = 0

[[record]]
compound = "CC1=CCCC(C)(C)C1/C=C/C(C)O (stereo not drawn) [Alpha ionol]"
value = 0

[[record]]
compound = "CC1=C(/C=C/C(C)O)C(C)(C)CCC1 (stereo not drawn) [Beta ionol]"
value = 0

[[record]]
compound = "CC(C)[C@@H]1CC[C@@H](C)CC1=O [Mentone]"
value = 0


So, C/C=C/C(=O)C1=C(C)C=CCC1(C)C [Damascenone] ? Its inhibition at 100 µM was 79

inhibition at 100 µM measured on CC=CC(=O)C1C(C)=CCCC1(C)C (stereo not drawn) [alpha damascone] = 98

---

test system: acyl CoA retinol transferase (ARAT); assay: in vitro Microsomal Assay of retinol esterification, ARAT catalysed (retinyl palmitate formation); conditions: Table 5; 100 μM
endpoint: % INHIB. ARAT (%)
Respond numerically; units are % and should not be typed.

The cases that follow already have their % INHIB. ARAT on record.
[[record]]
compound = "O=C(NCO)N(CO)C1(CO)C(=O)NC(=O)N1CO (stereo not drawn)"
value = 0

[[record]]
compound = "CCCCCCCCCCCCC/C=C/[C@@H](O)[C@H](CO)NC(C)=O"
value = 62

[[record]]
compound = "Cc1ncc(C[n+]2csc(CCO)c2C)c(N)n1"
value = 0

[[record]]
compound = "N[C@@H](Cc1c[nH]c2ccccc12)C(=O)O"
value = 0

[[record]]
compound = "Nc1ncnc2nc[nH]c12"
value = 0


Record O=c1cc[nH]c(=O)[nH]1 . Reported % INHIB. ARAT: 0

---

target: lecithin retinol acyl transferase (LRAT) (Bos taurus); test: in vitro Microsomal Assay of retinol esterification, LRAT catalysed (retinyl laurate formation); conditions: read-out: % INHIBITION, LRAT
endpoint: inhibition at 100 µM (%)
Give a bare numeral; the unit % is implied.

Worked examples follow.
[[record]]
molecule = "Cc1ccc(C(C)C)c(O)c1"
value = 0

[[record]]
molecule = "C/C=C/C(=O)C1=C(C)CCCC1(C)C"
value = 92

[[record]]
molecule = "CC1=CC(C)C(CO)C(C)C1 (stereo not shown)"
value = 16


Turning to the following molecule.
Just so you know, measured inhibition at 100 µM for C=C(C)C1CC=C(C)C(=O)C1 (stereo not shown) came out at 0

---

// reported inhibition at 10 µM for each item listed
molecular target: lecithin retinol acyl transferase (LRAT) (Bos taurus, UniProt Q9BGL2); test: in vitro Microsomal Assay of retinol esterification, LRAT catalysed (retinyl laurate formation); conditions: read-out: % INHIBITION, LRAT
The figure you give is taken to be in %; do not add the unit.

In plain terms, C/C=C/C(=O)C1=C(C)CCCC1(C)C has a documented inhibition at 10 µM of 52

According to the records, this molecule C/C=C/C(=O)C1=C(C)C=CCC1(C)C displays inhibition at 10 µM of 29

According to the records, this molecule CC=CC(=O)C1C(C)=CCCC1(C)C (stereo not shown) displays inhibition at 10 µM of 87

Record summary for C/C=C/C(=O)C1C(C)C=CCC1(C)C (stereo not shown) : reported inhibition at 10 µM = 64

---

Listed next: entries and their corresponding inhibition at 100 µM.
target: UniProt Q9BGL2; experiment: in vitro Microsomal Assay of retinol esterification, LRAT catalysed (retinyl laurate formation); conditions: read-out: % INHIB. LRAT
Give the value in % but do not write % after it.

// worked examples, inhibition at 100 µM included
[[record]]
compound = "CCCCC/C=C\\C/C=C\\CCCCCCCC(=O)N(CCO)CCO [Linoleamide-DEA (LODEA), Linoleamide-DEA]"
unitspec = "%"
value = 51

[[record]]
compound = "N[C@@H](Cc1c[nH]c2ccccc12)C(=O)O [tryptophan]"
unitspec = "%"
value = 0

[[record]]
compound = "Nc1ncnc2nc[nH]c12 [adenine]"
unitspec = "%"
value = 0

[[record]]
compound = "CC(C)=CCC/C(C)=C/CC/C(C)=C/CC/C(C)=C/CO [Geranyl Geraniol]"
unitspec = "%"
value = 77

[[record]]
compound = "Cc1ncc(C[n+]2csc(CCO)c2C)c(N)n1 [thiamine]"
unitspec = "%"
value = 0


inhibition at 100 µM recorded for this compound, O=C(NCO)N(CO)C1(CO)C(=O)NC(=O)N1CO (centres unmarked) [diazolidinyl urea] , is 0

So, CC(C)=CCCC(C)=CCCC(C)=CCO [Farnesol] ? Its inhibition at 100 µM was 43

Summary for this compound, O=c1cc[nH]c(=O)[nH]1 [uracil] : inhibition at 100 µM is 0

---

tested on: acyl CoA retinol transferase (ARAT); experiment: in vitro Microsomal Assay of retinol esterification, ARAT catalysed (retinyl palmitate formation); conditions: Table 7; 100 µM
Measured % INHIBITION, ARAT values are reported for all entries that follow.
Give the value, in units of %, as a plain number.

Field: example entries. Status: answers known.
[[record]]
molecule = "C=C(C)C1CC=C(C)C(=O)C1 (stereo not drawn)"
endpoint = "% INHIBITION, ARAT"
value = 0

[[record]]
molecule = "CC12CCC(C1)C(C)(C)C2O (stereo not drawn)"
endpoint = "% INHIBITION, ARAT"
value = 12

[[record]]
molecule = "COc1cc(C=O)ccc1O"
endpoint = "% INHIBITION, ARAT"
value = 0


// % INHIBITION, ARAT (acyl CoA retinol transferase (ARAT)) for CC1=CC(C)C(CO)C(C)C1 (stereo not drawn) = 18

# CC(=O)CCC1C(C)=CCCC1(C)C (stereo not drawn) [Dihydro alpha ionone] with acyl CoA retinol transferase (ARAT): % INHIBITION, ARAT is 13

Record for CC12CCC(CC1)C(C)(C)O2 under target or system acyl CoA retinol transferase (ARAT): % INHIBITION, ARAT reported as 0

// % INHIBITION, ARAT (acyl CoA retinol transferase (ARAT)) for O=CC=Cc1ccccc1 = 0

Value sought: % INHIBITION, ARAT, system acyl CoA retinol transferase (ARAT), item Cc1ccc(C(C)C)c(O)c1 . Result: 0

Item CC12CCC(CC1=O)C2(C)C (stereo not drawn) was tested on acyl CoA retinol transferase (ARAT); the reported % INHIBITION, ARAT is 0
